System: P388 leukemia ip, CD2F1 mice, survival T/C
Assay: NCI In Vivo Anticancer Drug Screen. Data for tumor model P388 Leukemia (intraperitoneal) in CD2F1 (CDF1) mice
Conditions: endpoint: median survival time; dose: 25.0 mg/kg/injection; schedule: Q01DX009 (ip); vehicle: water; higher = longer survival
Inconclusive results and toxic doses are left out.
Catalogue of T/C readings, one per entry.
recorded-metric: T/C

compound=O=NNc1ccc(S(=O)(=O)c2ccc(NN=O)cc2)cc1 measured_result="116 % of control"
compound="NC(=O)CCC(N)C(=O)O.[Cl-].[Cl-].[Cl-].[Cl-].[Pt+2] (configuration not stated)" measured_result="155 % of control"
compound=O=NNc1ccc2cccnc2n1 measured_result="150 % of control"
compound="CC(=O)NC1C(=O)OC(C(O)CO)C1O (configuration not stated)" measured_result="91 % of control"
compound=COc1cc2c[n+]3c4c(cccc4c2cc1OC)CCC3 measured_result="108 % of control"
compound=C=C1C(=O)O[C@H]2C[C@H]3O[C@H]3[C@@H]12 measured_result="107 % of control"
compound="O=C(O)C1CC(c2ccccc2)=NN1c1ccccc1 (configuration not stated)" measured_result="98 % of control"

src = PubChem BioAssay AID330
